Data provenance is patent EP0346791B1.

# Study Target: PCP receptors
# Type: binding
# Applied Conditions: 1 nM 3H-TCP, whole rat brain membranes, 1 hour incubation; value ± SEM; read-out: Ki apparent
Reported Endpoint: log10(Ki) (log10 of the value in µM)
Scale type: logarithmic (base 10). Underlying Ki unit: µM.

Recorded results for 4 compounds are shown here.
Compound: Cc1cccc(C(Cc2ccccc2)N2CCCCC2)c1 (racemic)
log10(Ki): -0.96
//
Compound: COc1ccc(C(Cc2ccccc2)N2CCCCC2)cc1 (racemic)
log10(Ki): 0.91
//
Compound: COc1ccccc1C(Cc1ccccc1)N1CCCCC1 (racemic)
log10(Ki): -0.77
//
Compound: COc1cccc(C(Cc2ccccc2)N2CCCCC2)c1 (racemic)
log10(Ki): -1.00

Items follow; give log10(Ki) for each.
1. c1ccc(CC(c2cccc3ccccc23)N2CCCCC2)cc1 (racemic)
2. c1ccc(CC(c2ccccc2)N2CCCC2)cc1 (racemic)
3. Fc1ccc(C(Cc2ccccc2)N2CCCCC2)cc1 (racemic)
4. CC(C)(c1ccccc1)C(c1ccccc1)N1CCCCC1 (racemic)

**A:**
0.78
1.20
-0.66
1.08

---

# Study Target: PCP receptors
# Applied Conditions: 1 nM 3H-TCP, whole rat brain membranes, 1 hour incubation; value ± SEM; read-out: Ki apparent
Answer each item with its documented pKi.
Numbers only, as −log10 of the molar value.

Compound: Clc1ccccc1C(Cc1ccccc1)N1CCCCC1 (racemic)
pKi: 9.72

Compound: CC1CC(C)CN(C(Cc2ccccc2)c2ccccc2)C1 (racemic)
pKi: 6.07

Compound: Cc1ccc(C(Cc2ccccc2)N2CCCCC2)cc1 (racemic)
pKi: 5.74

Here's the next entry for you.
**Q:** Need pKi of c1ccc(CC(c2ccco2)N2CCCCC2)cc1 (racemic) , thanks.
**A:** 6.40
